Test: Half life in Sprague-Dawley rat at 5 mg/kg, po
Type: ADME, organism-based
Parameters: dose 5 mg/kg, route oral
Settings: in vivo

# Smiles str, half-life
measured = [
    ("Cc1ccccc1Nc1nc2ccc(CC(=O)N3C[C@@H](F)C[C@H]3CO[C@H]3CC[C@H](C(=O)O)CC3)cc2o1", "1.5 h"),
]

* * *

Assay: Oral bioavailability in Sprague-Dawley rat at 5 mg/kg
Type: ADME, organism-based
Conditions: in vivo

# Smiles str, Unit descriptor, bioavailability
data = [
    ("Cc1ccccc1Nc1nc2ccc(CC(=O)N3C[C@@H](F)C[C@H]3CO[C@H]3CC[C@H](C(=O)O)CC3)cc2o1", "%", 51),
]
